# target-system: Free fatty acid receptor 1 (Homo sapiens)
# test-description: Agonist potency at human GPR40 expressed in CHO cells
Consider the following compounds; for each one, report its pEC50.
Give bare numbers, as −log10 of the molar value.

CNC(=O)CCc1ccc(NCc2cccc(Oc3ccccc3)c2)cc1 : 7.31

Please look at the items below and tell me pEC50 for each one, in order.
1. Cc1nc(-c2ccc(C(F)(F)F)cc2)sc1CNc1ccc(CCC(=O)O)cc1
2. Cc1nc(-c2ccc(C(F)(F)F)cc2)sc1CNc1ccc([C@@H]2C[C@@H]2C(=O)O)cc1
3. Cc1nc(-c2ccc(C(F)(F)F)cc2)sc1CNc1ccc(CCC(N)=O)cc1

7.17
6.52
7.89

====

# target-system: Free fatty acid receptor 1 (Homo sapiens)
# test-description: Agonist potency at human GPR40 expressed in CHO cells relative to standard by luciferase reporter gene assay
# Format: functional, cell-based
assay-metric: %max (%)
Give bare numbers, in %.

Some entries whose results are on file:
Cc1nc(-c2ccc(C(F)(F)F)cc2)sc1CNc1ccc([C@H]2C[C@@H]2C(=O)NC(C)C)cc1 (stereo in doubt; 24B) : 71
O=C(O)COc1ccc(NCc2cccc(Oc3ccccc3)c2)cc1 : 84
CC(C)NC(=O)CCc1ccc(NCc2cccc(Oc3ccccc3)c2)cc1 : 66
Cc1nc(-c2ccc(C(F)(F)F)cc2)sc1CNc1ccc([C@H]2C[C@@H]2C(N)=O)cc1 : 80
O=C(O)/C=C/c1ccc(NCc2cccc(Oc3ccccc3)c2)cc1 : 76
Cc1nc(-c2ccc(C(F)(F)F)cc2)sc1CNc1ccc(/C=C/C(=O)O)cc1 : 95
Cc1nc(-c2ccc(C(F)(F)F)cc2)sc1CNc1ccc([C@H]2C[C@@H]2C(=O)N(C)C)cc1 : 49
O=C(O)Cc1ccc(NCc2cccc(Oc3ccccc3)c2)cc1 : 36
Cc1nc(-c2ccc(C(F)(F)F)cc2)sc1CNc1ccc([C@H]2C[C@@H]2C(=O)O)cc1 (stereo in doubt; 14B) : 89
Cc1nc(-c2ccc(C(F)(F)F)cc2)sc1CNc1ccc([C@@H]2C[C@@H]2C(=O)O)cc1 : 68

Please look at the items below and tell me %max for each one, in order.
1. O=C(CCc1ccc(NCc2cccc(Oc3ccccc3)c2)cc1)N1CCCC1
2. CC(Cc1ccc(NCc2cccc(Oc3ccccc3)c2)cc1)C(=O)O (stereo not given)
3. O=C(O)[C@H]1C[C@@H]1c1ccc(NCc2cccc(Oc3ccccc3)c2)cc1 (stereo in doubt; 14A)

1: 46; 2: 70; 3: 88

====

Consider the following compounds; for each one, report its %max.
# target-system: Free fatty acid receptor 1 (Homo sapiens, UniProt O14842)
# Sequence (O14842 whole entry): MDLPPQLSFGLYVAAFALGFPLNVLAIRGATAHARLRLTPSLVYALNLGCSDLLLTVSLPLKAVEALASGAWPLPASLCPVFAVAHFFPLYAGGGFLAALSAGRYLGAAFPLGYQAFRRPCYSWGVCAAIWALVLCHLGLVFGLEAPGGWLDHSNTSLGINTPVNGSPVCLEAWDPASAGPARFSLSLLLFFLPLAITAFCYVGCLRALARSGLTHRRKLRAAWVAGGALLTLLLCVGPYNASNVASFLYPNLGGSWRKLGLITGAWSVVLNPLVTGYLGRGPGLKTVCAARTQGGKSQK
# test-description: Agonist potency at human GPR40 expressed in CHO cells relative to standard by luciferase reporter gene assay
# Assay type: functional, cell-based
Answers are plain numbers, in %.

Some entries whose results are on file:
Cc1nc(-c2ccc(C(F)(F)F)cc2)sc1CNc1ccc(CC(C)C(=O)O)cc1 (centres undefined) : 100
Cc1nc(-c2ccc(C(F)(F)F)cc2)sc1CNc1ccc(CCC(=O)NC(C)C)cc1 : 84

Please look at the items below and tell me %max for each one, in order.
1. O=C(O)[C@@H]1C[C@H]1c1ccc(NCc2cccc(Oc3ccccc3)c2)cc1
2. Cc1nc(-c2ccc(C(F)(F)F)cc2)sc1CNc1ccc(CC(=O)O)cc1
3. Cc1nc(-c2ccc(C(F)(F)F)cc2)sc1CNc1ccc([C@H]2C[C@@H]2C(=O)O)cc1 (stereo in doubt; 10B)
4. Cc1nc(-c2ccc(C(F)(F)F)cc2)sc1CNc1ccc([C@H]2C[C@@H]2C(=O)NC(C)C)cc1 (stereo in doubt; 22B)
5. NC(=O)CCc1ccc(NCc2cccc(Oc3ccccc3)c2)cc1

1. 64
2. 18
3. 81
4. 69
5. 68

Please look at the items below and tell me %max for each one, in order.
1. Cc1nc(-c2ccc(C(F)(F)F)cc2)sc1CNc1ccc([C@H]2C[C@@H]2C(=O)NO)cc1
2. CN(C)C(=O)CCc1ccc(NCc2cccc(Oc3ccccc3)c2)cc1

1. 78
2. 50

====

# target-system: Free fatty acid receptor 1 (Homo sapiens)
# test-description: Agonist potency at human GPR40 expressed in CHO cells
pEC50: −log10 of the molar value.
Short version: pEC50 at least 7 is rule met, less is rule not met.

Below are worked cases with known answers.
O=C(O)[C@H]1C[C@@H]1c1ccc(NCc2cccc(Oc3ccccc3)c2)cc1 (stereo in doubt; 14A) : rule met
Cc1nc(-c2ccc(C(F)(F)F)cc2)sc1CNc1ccc(/C=C/C(=O)O)cc1 : rule met
O=C(O)CSc1ccc(NCc2cccc(Oc3ccccc3)c2)cc1 : rule not met

Turning to the following molecule.
Check the entry Cc1nc(-c2ccc(C(F)(F)F)cc2)sc1CNc1ccc(OCC(=O)O)cc1 : does pEC50 equal or exceed 7? rule not met

====

Consider the following molecules; for each one, report its EC50.
# target-system: Free fatty acid receptor 1 (Homo sapiens, UniProt O14842)
# test-description: Agonist potency at human GPR40 expressed in CHO cells
Numbers only, in nM.

Some entries whose results are on file:
NC(=O)CCc1ccc(NCc2cccc(Oc3ccccc3)c2)cc1 : 51.3
CN(C)C(=O)CCc1ccc(NCc2cccc(Oc3ccccc3)c2)cc1 : 174
Cc1nc(-c2ccc(C(F)(F)F)cc2)sc1CNc1ccc([C@H]2C[C@@H]2C(=O)NC(C)C)cc1 (stereo in doubt; 22B) : 14.1
O=C(CCc1ccc(NCc2cccc(Oc3ccccc3)c2)cc1)N1CCCC1 : 115

Please look at the items below and tell me EC50 for each one, in order.
1. O=C(O)COc1ccc(NCc2cccc(Oc3ccccc3)c2)cc1
2. Cc1nc(-c2ccc(C(F)(F)F)cc2)sc1CNc1ccc([C@H]2C[C@@H]2C(=O)NC2CCC2)cc1
3. O=C(O)CCCc1ccc(NCc2cccc(Oc3ccccc3)c2)cc1
4. Cc1nc(-c2ccc(C(F)(F)F)cc2)sc1CNc1ccc([C@H]2C[C@@H]2C(=O)O)cc1 (stereo in doubt; 14B)
5. Cc1nc(-c2ccc(C(F)(F)F)cc2)sc1CNc1ccc([C@H]2C[C@@H]2C(=O)NC2CCNC2)cc1 (some centres undefined)
6. CC(CC(=O)O)c1ccc(NCc2cccc(Oc3ccccc3)c2)cc1 (centres undefined)

1. 2040
2. 9.12
3. 1120
4. 4.9
5. 204
6. 126

====

Consider the following compounds; for each one, report its %max.
# target-system: Free fatty acid receptor 1 (Homo sapiens, UniProt O14842)
# test-description: Agonist potency at human GPR40 expressed in CHO cells relative to standard by luciferase reporter gene assay
# Format: functional, cell-based
Number plus unit, in that order.

Some entries whose results are on file:
Cc1nc(-c2ccc(C(F)(F)F)cc2)sc1CNc1ccc(CCC(N)=O)cc1 : 88%
Cc1nc(-c2ccc(C(F)(F)F)cc2)sc1CNc1ccc([C@H]2C[C@@H]2C(=O)NC2CCC2)cc1 : 55%
Cc1nc(-c2ccc(C(F)(F)F)cc2)sc1CNc1ccc(OCC(=O)O)cc1 : 100%

Please look at the items below and tell me %max for each one, in order.
1. O=C(O)[C@H]1C[C@@H]1c1ccc(NCc2cccc(Oc3ccccc3)c2)cc1 (stereo in doubt; 10A)
2. CNC(=O)CCc1ccc(NCc2cccc(Oc3ccccc3)c2)cc1
3. Cc1nc(-c2ccc(C(F)(F)F)cc2)sc1CNc1ccc(C(=O)O)cc1
4. O=C(O)CSc1ccc(NCc2cccc(Oc3ccccc3)c2)cc1
5. CC(C)NC(=O)[C@H]1C[C@@H]1c1ccc(NCc2cccc(Oc3ccccc3)c2)cc1
6. Cc1nc(-c2ccc(C(F)(F)F)cc2)sc1CNc1ccc([C@H]2C[C@@H]2C(=O)NC2CCNC2)cc1 (some centres not stated)

72%
67%
10%
84%
62%
52%

Please look at the items below and tell me %max for each one, in order.
1. Cc1nc(-c2ccc(C(F)(F)F)cc2)sc1CNc1ccc(CCC(=O)O)cc1
2. O=C(NO)[C@H]1C[C@@H]1c1ccc(NCc2cccc(Oc3ccccc3)c2)cc1

1: 108%; 2: 90%

Query Cc1nc(-c2ccc(C(F)(F)F)cc2)sc1CNc1ccc([C@H]2C[C@@H]2C(=O)N[C@H](C)c2ccccc2)cc1 on Free fatty acid receptor 1 (Homo sapiens, UniProt O14842); %max returned: 42%

====

# target-system: Free fatty acid receptor 1 (Homo sapiens, UniProt O14842)
# test-description: Agonist potency at human GPR40 expressed in CHO cells
// NB: equality with 60 nM counts as NOT MET; only EC50 strictly below is MET

Below are worked cases with known answers.
CC(C)(Oc1ccc(NCc2cccc(Oc3ccccc3)c2)cc1)C(=O)O : NOT MET
O=C(O)[C@H]1C[C@@H]1c1ccc(NCc2cccc(Oc3ccccc3)c2)cc1 (stereo in doubt; 10A) : MET

Turning to the following compound.
# TODO verify EC50 < 60 nM strictly for this compound: O=C(O)/C=C/c1ccc(NCc2cccc(Oc3ccccc3)c2)cc1 NOT MET
